Target: CFTR-mediated chloride transport in human intestinal epithelial enteroid cells (Homo sapiens, UniProt P13569)
Sequence (P13569 with tags, fused parts or gaps DEL508-508): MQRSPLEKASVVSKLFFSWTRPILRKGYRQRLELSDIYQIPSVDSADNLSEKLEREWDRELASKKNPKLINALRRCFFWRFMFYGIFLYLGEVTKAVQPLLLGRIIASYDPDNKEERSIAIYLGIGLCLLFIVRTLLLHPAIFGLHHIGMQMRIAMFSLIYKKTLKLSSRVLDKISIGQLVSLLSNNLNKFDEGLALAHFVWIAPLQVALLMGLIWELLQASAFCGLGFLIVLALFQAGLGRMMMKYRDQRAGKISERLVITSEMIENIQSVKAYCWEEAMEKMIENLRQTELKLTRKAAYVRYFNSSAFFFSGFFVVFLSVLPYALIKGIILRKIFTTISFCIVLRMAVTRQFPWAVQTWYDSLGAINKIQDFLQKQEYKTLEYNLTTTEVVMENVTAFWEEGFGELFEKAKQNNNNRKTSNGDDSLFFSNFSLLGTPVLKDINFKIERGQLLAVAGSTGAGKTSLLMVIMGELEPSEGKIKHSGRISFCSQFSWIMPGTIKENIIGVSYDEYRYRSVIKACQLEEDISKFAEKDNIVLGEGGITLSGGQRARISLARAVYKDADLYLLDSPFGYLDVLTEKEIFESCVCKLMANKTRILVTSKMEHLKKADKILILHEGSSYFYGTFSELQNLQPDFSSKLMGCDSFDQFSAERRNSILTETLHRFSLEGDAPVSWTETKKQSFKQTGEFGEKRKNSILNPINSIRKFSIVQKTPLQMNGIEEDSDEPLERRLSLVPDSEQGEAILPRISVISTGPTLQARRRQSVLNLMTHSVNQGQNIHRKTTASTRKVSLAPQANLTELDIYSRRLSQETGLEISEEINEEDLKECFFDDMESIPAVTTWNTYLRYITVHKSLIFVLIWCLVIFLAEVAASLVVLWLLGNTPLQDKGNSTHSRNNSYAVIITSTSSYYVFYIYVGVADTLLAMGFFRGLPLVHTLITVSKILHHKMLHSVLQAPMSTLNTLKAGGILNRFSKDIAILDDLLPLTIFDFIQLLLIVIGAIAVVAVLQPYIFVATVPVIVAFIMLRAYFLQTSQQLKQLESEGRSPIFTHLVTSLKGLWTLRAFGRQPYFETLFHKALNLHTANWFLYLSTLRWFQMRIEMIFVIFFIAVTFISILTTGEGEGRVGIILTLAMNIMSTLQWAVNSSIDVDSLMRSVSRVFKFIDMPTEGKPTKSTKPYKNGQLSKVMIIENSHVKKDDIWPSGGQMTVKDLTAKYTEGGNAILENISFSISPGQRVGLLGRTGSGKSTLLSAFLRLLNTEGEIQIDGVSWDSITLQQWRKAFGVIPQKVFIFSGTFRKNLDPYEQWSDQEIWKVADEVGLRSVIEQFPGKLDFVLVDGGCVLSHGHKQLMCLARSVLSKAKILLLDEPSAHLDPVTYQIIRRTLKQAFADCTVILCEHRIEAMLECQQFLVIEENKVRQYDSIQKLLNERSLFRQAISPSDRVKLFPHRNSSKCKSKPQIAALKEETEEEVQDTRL
Assay: Membrane potential dye, Enteroid Assay A
Assay type: cell-based
Conditions: percentage of chloride transport of triple combination control (3 μM N-[(6-amino-2-pyridyl)sulfonyl]-6-(3-fluoro-5-isobutoxy-phenyl)-2-[(4S)-2,2,4-trimethylpyrrolidin-1-yl]pyridine-3-carboxamide based)
observed.property: Ent. A Max Activity (%)

Cc1cccc(C)c1-c1cc2nc(n1)NS(=O)(=O)c1cccc(c1)C(=O)N1C[C@H]3C[C@@H]1[C@@H](C3)O2 [Compound 364]
++ (++ is 30-60%)
Cc1cccc(C)c1-c1cc2nc(n1)NS(=O)(=O)c1cccc(c1)C(=O)N1CCN(CCC3(C(F)(F)F)CC3)CC1CO2 (stereo not shown)
++ (++ is 30-60%)
Cc1cccc(C)c1-c1cc2nc(n1)NS(=O)(=O)c1cccc(c1)CN1Cc3ccccc3C(C1)O2 (stereo not shown)
++ (++ is 30-60%)
Cc1cccc(C)c1-c1cc2nc(n1)NS(=O)(=O)c1cccc(c1)C(=O)N1CCN(CC3CCCCC3)C[C@@H]1CO2
+++ (+++ is >60%)
Cc1cccc(C)c1-c1cc2nc(n1)NS(=O)(=O)c1cccc(c1)C(=O)N1CC(CCC1c1ccccc1)O2 (single isomer, unassigned) [Compound 226]
++ (++ is 30-60%)

query: What value of Ent. A Max Activity (%) has been reported for the following compound? Cc1cccc(C)c1-c1cc2nc(n1)NS(=O)(=O)c1cccc(c1)C(=O)N1CCN(C(=O)NC3CCCCCC3)C[C@@H]1CO2
result: +++ (+++ is >60%)

query: What value of Ent. A Max Activity (%) has been reported for the following compound? Cc1cccc(C)c1-c1cc2nc(n1)NS(=O)(=O)c1cccc(c1)C(=O)N1CCN(C(=O)CC(C)(C)C)C(CO2)C1 (stereo not shown)
result: ++ (++ is 30-60%)

query: What value of Ent. A Max Activity (%) has been reported for the following compound? Cc1cccc(C)c1-c1cc2nc(n1)NS(=O)(=O)c1cccc(c1)C(=O)N1CCN(C(=O)OC(C)(C)C)CC1C(C)O2 (stereo not shown)
result: ++ (++ is 30-60%)

query: What value of Ent. A Max Activity (%) has been reported for the following compound? Cc1cccc(C)c1-c1cc2nc(n1)NS(=O)(=O)c1cccc(c1)C(=O)N1CCN(Cc3ccn[nH]3)CC(C1)O2 (stereo not shown)
result: ++ (++ is 30-60%)

query: What value of Ent. A Max Activity (%) has been reported for the following compound? Cc1cccc(C)c1-c1cc2nc(n1)NS(=O)(=O)c1cccc(c1)C(=O)N1CCN(C)C[C@@H]1CO2
result: ++ (++ is 30-60%)

----------
Target: CFTR-mediated short-circuit current in F508del/MF-HBE cells (Homo sapiens, UniProt P13569, DEL508-508)
Construct: human bronchial epithelial (HBE) cells derived from CF subjects; endogenous in cells; host or cells: primary human bronchial epithelial cells from CF subjects (F508del/MF-HBE)
Experiment: HBE2 assay: Ussing chamber assay of CFTR-mediated short-circuit currents
Type: cell-based
observed.property: HBE2 Activity at 3 μM (%)

Worked examples, 4 compounds total:
Cc1cccc(C)c1-c1cc2nc(n1)NS(=O)(=O)c1cccc(c1)C(=O)N1[C@@H](c3cncc(N(C)C4CCC4)n3)CCC[C@@H](CC(C)C)[C@H]1CO2 (single isomer, unassigned) [Compound 402]
+++ (+++ is >60%)
Cc1cccc(C)c1-c1cc2nc(n1)NS(=O)(=O)c1cccc(c1)C(=O)N1[C@@H](c3ncc(OC(C)C)cn3)CCC[C@@H](CC(C)C)[C@H]1CO2 (single isomer, unassigned) [Compound 398]
+++ (+++ is >60%)
Cc1cccc(C)c1-c1cc2nc(n1)NS(=O)(=O)c1cccc(c1)C(=O)N1C[C@@H](CCCC[C@@H]1c1ncc(OCc3ccccc3)cn1)O2 [Compound 417]
+ (+ is <30+)
Cc1cccc(C)c1-c1cc2nc(n1)NS(=O)(=O)c1cccc(c1)C(=O)N1[C@@H](c3ncc(OC(C)C)cn3)CCC[C@@H](O2)[C@H]1CC(C)C [Compound 422]
+ (+ is <30+)

Here is another compound to look at.
query: What value of HBE2 Activity at 3 μM (%) has been reported for the following compound? Cc1cccc(C)c1-c1cc2nc(n1)NS(=O)(=O)c1cccc(c1)C(=O)N1[C@@H](c3ncc(OC(C)C)cn3)CCC[C@@H](O2)[C@H]1CC(C)C (single isomer, unassigned) [Compound 408]
result: +++ (+++ is >60%)

----------
Target: CFTR-mediated chloride transport in human intestinal epithelial enteroid cells (Homo sapiens, UniProt P13569)
Experiment: Membrane potential dye, Enteroid Assay A
Format: cell-based
Details: Enteroid Assay A
observed.property: Ent. A Max Activity (%)

Cc1cccc(C)c1-c1cc2nc(n1)NS(=O)(=O)c1cccc(c1)C(=O)N1C[C@@H](CN(C3CCC(F)(F)CC3)C[C@H]1C(C)C)O2
+++ (+++ is >600%)
Cc1cccc(C)c1-c1cc2nc(n1)NS(=O)(=O)c1cccc(c1)C(=O)N1C[C@@H](CN(C3CC4(CCCC4)C3)C[C@H]1CC(C)C)O2
+++ (+++ is >600%)

----------
Target: CFTR-mediated short-circuit current in F508del/MF-HBE cells (Homo sapiens, UniProt P13569, DEL508-508)
Construct: human bronchial epithelial (HBE) cells derived from CF subjects; endogenous in cells; host or cells: primary human bronchial epithelial cells from CF subjects (F508del/MF-HBE)
Test: HBE2 assay: Ussing chamber assay of CFTR-mediated short-circuit currents
Type: cell-based
observed.property: HBE2 Activity at 3 μM (%)

Cc1cccc(C)c1-c1cc2nc(n1)NS(=O)(=O)c1cccc(c1)C(=O)N1[C@@H](c3ncc(OC(C)C)cn3)CCC[C@@H](O2)[C@H]1CC(C)C (single isomer, unassigned) [Compound 407]
+ (+ is <30+)
Cc1cccc(C)c1-c1cc2nc(n1)NS(=O)(=O)c1cccc(c1)C(=O)N1[C@@H](CCCC[C@@H]1c1ncc(OCc3ccccc3)cn1)CO2 [Compound 420]
+ (+ is <30+)

----------
Target: CFTR-mediated chloride transport in human intestinal epithelial enteroid cells (Homo sapiens)
Assay: Membrane potential dye, Enteroid Assay A
Format: cell-based
Details: Enteroid Assay A
observed.property: Ent. A Max Activity (%)

Cc1cccc(C)c1-c1cc2nc(n1)NS(=O)(=O)c1cccc(c1)C(=O)N1CCN(CCC3C4(CC4)C34CC4)C[C@H](C1)O2 [Compound 18]
+ (+ is <30%)
Cc1cccc(C)c1-c1cc2nc(n1)NS(=O)(=O)c1cccc(c1)C(=O)N1CCN(C3CC4(COC4)C3)C[C@H](C1)O2 [Compound 25]
++ (++ is 30-60%)
Cc1cccc(C)c1-c1cc2nc(n1)NS(=O)(=O)c1cccc(c1)C(=O)N1CCN(C3CC4(CCCCC4)C3)C[C@H](C1)O2 [Compound 3]
+++ (+++ is >600%)
Cc1cccc(C)c1-c1cc2nc(n1)NS(=O)(=O)c1cccc(c1)C(=O)N1C[C@H](CN(Cc3ccccc3)[C@H](CC(C)C)C1)O2 [Compound 111]
+ (+ is <30%)

query: What value of Ent. A Max Activity (%) has been reported for the following molecule? Cc1cccc(C)c1-c1cc2nc(n1)NS(=O)(=O)c1cccc(c1)C(=O)N1CCCN(CCCC3(C(F)(F)F)CC3)CC(C1)O2 (stereo not drawn) [Compound 357]
result: ++ (++ is 30-60%)

query: What value of Ent. A Max Activity (%) has been reported for the following molecule? Cc1cccc(C)c1-c1cc2nc(n1)NS(=O)(=O)c1cccc(c1)C(=O)N1C[C@@H](CN(C3CCC(F)(F)CC3)C[C@H]1CC(C)C)O2 [Compound 142]
result: +++ (+++ is >600%)

----------
Target: CFTR-mediated short-circuit current in F508del/MF-HBE cells (Homo sapiens, UniProt P13569, DEL508-508)
Construct: human bronchial epithelial (HBE) cells derived from CF subjects; endogenous in cells; host or cells: primary human bronchial epithelial cells from CF subjects (F508del/MF-HBE)
Assay: HBE2 assay: Ussing chamber assay of CFTR-mediated short-circuit currents
Assay type: cell-based
observed.property: HBE2 Activity at 3 μM (%)

Cc1cccc(C)c1-c1cc2nc(n1)NS(=O)(=O)c1cccc(c1)C(=O)N1[C@@H](c3ncc(OC(C)C)cn3)CCC[C@@H](CC(C)C)[C@H]1CO2 (single isomer, unassigned) [Compound 396]
+ (+ is <30+)
Cc1cccc(C)c1-c1cc2nc(n1)NS(=O)(=O)c1cccc(c1)C(=O)N1[C@@H](c3cncc(N(C)C4CCC4)n3)CCC[C@@H](CC(C)C)[C@H]1CO2 (single isomer, unassigned) [Compound 400]
+++ (+++ is >60%)
Cc1cccc(C)c1-c1cc2nc(n1)NS(=O)(=O)c1cccc(c1)C(=O)N1[C@@H](c3ncc(OC(C)C)cn3)CCC(C)(C)[C@H]1CO2 (single isomer, unassigned) [Compound 386]
+ (+ is <30+)
Cc1cccc(C)c1-c1cc2nc(n1)NS(=O)(=O)c1cccc(c1)C(=O)N1[C@@H](c3ncc(OC(C)C)cn3)CCC[C@@H](O2)[C@H]1CC(C)C (single isomer, unassigned) [Compound 406]
+++ (+++ is >60%)
